Tested on: Monochoria vaginalis
Test: Herbicidal activity by paddy field soil treatment (Test Example 1)
Type: in vivo
Set-up: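 index 0 to 10 in 10% steps of herbicidal effect with 10 meaning complete death and 0 below 10%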
Conditions: 1000 g of effective component per hectare, evaluated on day 21 after the treatment, criteria of Table 72
measurement type: Herbicidal effects index number, Monochoria vaginalis
Output: the number by itself.

**Query** // fetch Monochoria vaginalis Herbicidal effects index number, Monochoria vaginalis for CCCCCCn1c(=O)c(C(=O)C2=C(O)CCCC2=O)nn(C)c1=O
**Result** 8

**Query** Param readout= Herbicidal effects index number, Monochoria vaginalis; system= Monochoria vaginalis; entry= CC(C)n1c(=O)c(C(=O)C2=C(O)CCCC2=O)nn(C)c1=O ; returns value.
**Result** 9

**Query** GET /values?readout=Herbicidal effects index number, Monochoria vaginalis&system=Monochoria vaginalis&item= Cc1cccc(-n2c(=O)c(C(=O)C3=C(O)CCCC3=O)nn(C)c2=O)c1
**Result** 10

**Query** Checklist item: Herbicidal effects index number, Monochoria vaginalis tested on Monochoria vaginalis, entry Cn1nc(C(=O)C2=C(O)CCCC2=O)c(=O)n(-c2ccc(Cl)c(Cl)c2)c1=O , value?
**Result** 10

**Query** Please tell me: Herbicidal effects index number, Monochoria vaginalis of Cn1nc(C(=O)C2=C(O)CCCC2=O)c(=O)n(N2CCS(=O)(=O)CC2)c1=O , system Monochoria vaginalis?
**Result** 8

**Query** # value lookup — system Monochoria vaginalis, readout Herbicidal effects index number, Monochoria vaginalis, item Cn1nc(C(=O)C2=C(O)CCCC2=O)c(=O)n(-c2cc(C(F)(F)F)cc(C(F)(F)F)c2)c1=O
**Result** 10

**Query** Missing value: Herbicidal effects index number, Monochoria vaginalis, Monochoria vaginalis, entry Cc1ccc(F)cc1-n1c(=O)c(C(=O)C2=C(O)CCCC2=O)nn(C)c1=O . Fill in?
**Result** 10

**Query** Query the reported Herbicidal effects index number, Monochoria vaginalis for Monochoria vaginalis; item: COc1c(Cl)cc(-n2c(=O)c(C(=O)C3=C(O)CCCC3=O)nn(C)c2=O)cc1Cl
**Result** 10

**Query** Field: Herbicidal effects index number, Monochoria vaginalis (Monochoria vaginalis). Entry: Cn1ncc(C(=O)c2nn(C)c(=O)n(-c3ccccc3)c2=O)c1O
**Result** 8

**Query** So what Herbicidal effects index number, Monochoria vaginalis did Cn1nc(C(=O)C2=C(O)CCCC2=O)c(=O)n(-c2ccccc2[N+](=O)[O-])c1=O get with Monochoria vaginalis?
**Result** 10

**Query** For Monochoria vaginalis, provide Herbicidal effects index number, Monochoria vaginalis of Cc1cc(C)nc(-n2c(=O)c(C(=O)C3=C(O)CCCC3=O)nn(C)c2=O)n1 please.
**Result** 10

**Query** Recall the recorded Herbicidal effects index number, Monochoria vaginalis for Cn1nc(C(=O)C2=C(O)CCCC2=O)c(=O)n(-c2cccc(-c3ccccc3)c2)c1=O with Monochoria vaginalis and state it.
**Result** 8

**Query** What measured Herbicidal effects index number, Monochoria vaginalis is associated with CSc1c(Cl)cc(-n2c(=O)c(C(=O)O)nn(C)c2=O)cc1Cl on Monochoria vaginalis?
**Result** 10

**Query** Value wanted: Herbicidal effects index number, Monochoria vaginalis (Monochoria vaginalis) of entry Cc1c(Cl)cccc1-n1c(=O)c(C(=O)C2=C(O)CCCC2=O)nn(C)c1=O
**Result** 10

**Query** Provide the documented Herbicidal effects index number, Monochoria vaginalis with Monochoria vaginalis as the system for Cn1nc(C(=O)C2=C(O)CCCC2=O)c(=O)n(N2CCOCC2)c1=O
**Result** 10

**Query** Under Monochoria vaginalis: Herbicidal effects index number, Monochoria vaginalis value of COc1ccc(-n2c(=O)c(C(=O)C3=C(O)CCCC3=O)nn(C)c2=O)cc1Cl ?
**Result** 10

**Query** Please provide the recorded Herbicidal effects index number, Monochoria vaginalis for COc1cc(-n2c(=O)c(C(=O)C3=C(O)CCCC3=O)nn(C)c2=O)ccc1Cl , tested on Monochoria vaginalis.
**Result** 10

**Query** Hello, I am looking for reported Herbicidal effects index number, Monochoria vaginalis with Monochoria vaginalis for Cn1nc(C(=O)O)c(=O)n(-c2cc(Cl)c(Cl)c(Cl)c2)c1=O . Could you help?
**Result** 10

**Query** Observed Herbicidal effects index number, Monochoria vaginalis on Monochoria vaginalis for Cn1nc(C(=O)O)c(=O)n(-c2c(F)c(F)c(F)c(F)c2F)c1=O , please.
**Result** 10

**Query** Form: Entry = CON=C(C)Cn1c(=O)c(C(=O)O)nn(C)c1=O | System = Monochoria vaginalis | Herbicidal effects index number, Monochoria vaginalis = ____
**Result** 10

**Query** API: value(readout=Herbicidal effects index number, Monochoria vaginalis, system=Monochoria vaginalis) for record Cn1nc(C(=O)C2=C(O)CCCC2=O)c(=O)n(-c2cccc(F)c2)c1=O
**Result** 10

**Query** Kindly state the measured Herbicidal effects index number, Monochoria vaginalis obtained for CCOc1ccc(-n2c(=O)c(C(=O)C3=C(O)CCCC3=O)nn(C)c2=O)cc1 with Monochoria vaginalis.
**Result** 10

**Query** Find Herbicidal effects index number, Monochoria vaginalis (Monochoria vaginalis) for the entry Cn1nc(C(=O)C2=C(O)CCCC2=O)c(=O)n(C)c1=O
**Result** 10

**Query** Hi! What's the reported Herbicidal effects index number, Monochoria vaginalis for CCN(c1ccccc1)n1c(=O)c(C(=O)C2=C(O)CCCC2=O)nn(C)c1=O on Monochoria vaginalis?
**Result** 10

**Query** Field: Herbicidal effects index number, Monochoria vaginalis (Monochoria vaginalis). Entry: Cn1nc(C(=O)C2=C(O)CCCC2=O)c(=O)n(-c2ccccc2C(F)(F)F)c1=O
**Result** 10

**Query** So what Herbicidal effects index number, Monochoria vaginalis did Cc1cccc(OC(F)(F)F)c1-n1c(=O)c(C(=O)C2=C(O)CCCC2=O)nn(C)c1=O get with Monochoria vaginalis?
**Result** 10

**Query** What Herbicidal effects index number, Monochoria vaginalis appears in the records for this molecule with Monochoria vaginalis? Cc1cccc(-n2c(=O)c(C(=O)C3=C(O)CCCC3=O)nn(C)c2=O)c1C
**Result** 10

**Query** Short answer please: Herbicidal effects index number, Monochoria vaginalis, Monochoria vaginalis, entry Cn1nc(C(=O)C2=C(O)CCCC2=O)c(=O)n(CS(C)(=O)=O)c1=O
**Result** 10

**Query** // map Cn1nc(C(=O)C2=C(O)CCCC2=O)c(=O)n(-c2ccc(C#N)cc2)c1=O to recorded Herbicidal effects index number, Monochoria vaginalis (system: Monochoria vaginalis)
**Result** 10

**Query** For the record Cn1nc(C(=O)C2=C(O)CCCC2=O)c(=O)n(-c2ccc(Cl)nc2)c1=O , what value of Herbicidal effects index number, Monochoria vaginalis is listed for Monochoria vaginalis?
**Result** 10
